# System: TAOK3;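 also: KINOMEscan kinase panel screen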
# Condition Parameters: concentration: 1 μM, replicates: in singlicate; n = 1
Parameter Measured: %Inh (%)
Give just the numeric value; % need not be written.

FC(F)(F)c1ccc(-c2cc(-c3c[nH]nc3-c3ccccn3)ccn2)cc1 [GW599550] = 0
COc1ccc(Nc2nccc(N3CCC(NC(=O)c4cccc(NC(C)=O)c4)C3)n2)cc1 (stereo not drawn) [GSK1379732] = 0
O=c1cc(N2CCOCC2)nc2n(Cc3cccc(Cl)c3)ccn12 [GSK2296823] = 0
Cl.c1ccc(Cn2ccc3cc(Nc4ncnc5ccccc45)ccc32)cc1 [GW275568] = 0
CS(=O)(=O)CCNCc1nc(-c2ccc3ncnc(Nc4ccc(OCc5cccc(F)c5)c(Cl)c4)c3c2)cs1.Cl [GW583340] = 0
Clc1cccc(-c2nc(Nc3ccncc3)c3ccccc3n2)c1 [GW873004] = 0
CC(C)(C)c1ccc(-n2cnc3c(N)ncnc32)cc1 [SKF-97263] = 8
CCn1c(-c2ccncc2)nc2cnccc21 [SB-735216] = 18

Now look at this entry.
// sample C[C@H]1CC[C@@H](C(=O)Nc2ccccc2)CN1c1cc(-c2ccc3c(N)n[nH]c3c2)nc(N)n1 [GSK2283293] , its %Inh was 0
